All figures here come from patent US11691949B2.

- System: S. aureus ATCC 6538
- assay.overview: MIC by broth microdilution, S. aureus
- Format: cell-based
- condition.context: Staphylococcus aureus, ATCC6538, No Zinc; read-out: S. aureus ATCC 6538 MIC
MIC listing for selected molecules.
Output spec: scalar in µg/mL, unitless text.

Take a look at these entries with their results.
molecule	tested.system	unit.name	MIC
CN(C)Cc1ccc2cccc(NS(=O)(=O)c3ccc(Cl)s3)c2n1 [ZDR326]	S. aureus ATCC 6538	µg/mL	32
O=S(=O)(Nc1cccc2ccc(CNC3CCCC3)nc12)c1ccc(C(F)(F)F)cc1 [ZDR404]	S. aureus ATCC 6538	µg/mL	32

Record request: MIC value, item CN(C)CCNCc1ccc2cccc(NS(=O)(=O)c3ccc(C(F)(F)F)cc3)c2n1 [ZDR030]
16

Record request: MIC value, item CN(C)Cc1ccc2cccc(NS(=O)(=O)c3ccc(Br)cc3)c2n1 [ZDR305]
64

Record request: MIC value, item N/C(=N\[N+](=O)[O-])NCCNCc1ccc2cccc(NS(=O)(=O)c3ccc(C(F)(F)F)cc3)c2n1 [ZDR145]
64

Record request: MIC value, item CN(C)Cc1ccc2cccc(NS(=O)(=O)c3ccc(OC(F)F)cc3)c2n1 [ZDR306]
128

Record request: MIC value, item O=S(=O)(Nc1cccc2ccc(CNCCN3CCOCC3)nc12)c1ccc(C(F)(F)F)cc1 [ZDR112]
16

Record request: MIC value, item O=S(=O)(Nc1cccc2ccc(/C=N/NC(=S)NCCN3CCOCC3)nc12)c1ccc(C(F)(F)F)cc1 [ZDR119]
4

Record request: MIC value, item O=S(=O)(Nc1cccc2ccc(CNCc3ccccn3)nc12)c1ccc(C(F)(F)F)cc1 [ZDR035]
4

Record request: MIC value, item CN(C)Cc1ccc2cccc(NS(=O)(=O)c3ccc([N+](=O)[O-])cc3)c2n1 [ZDR067]
128

Record request: MIC value, item CN(C)Cc1ccc2cccc(NS(=O)(=O)c3ccccc3Br)c2n1 [ZDR202]
256

Record request: MIC value, item CN(C)Cc1ccc2cccc(NS(=O)(=O)c3cccc(F)c3)c2n1 [ZDR312]
256

Record request: MIC value, item O=S(=O)(Nc1cccc2ccc(CNC3CCCCC3)nc12)c1ccc(C(F)(F)F)cc1 [ZDR405]
64
